assayExplanation: protein stability index of a GFP-peptide fusion (GPS, HEK-293T) (PSI 1-6); higher = more stable;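 also: 24-mer peptide tiles fused after GFP, lentivirally expressed, FACS-sorted into six equal bins by GFP/DsRed ratio, decoded by Illumina sequencing, PSI is the read-weighted mean bin number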
conditionNotes: treatment: DMSO; c terminus: a fixed tail appended

# biosequence, protein stability index
rows = [
    ("METQAEQQELETLPTTKMAQTNPT [CRYBA1]", 5.24),
    ("AECALNERGVEGDFLIRDSESSPS [NCK2]", 5.42),
    ("TQHKFICEQCGKCKCGECTAPRTL [SPRY1]", 4),
    ("IYKLEEHEEFFPAFQAFTNDLLEI [CEP70]", 2.43),
    ("SYKYTSRYVLKAGQTVTIWAANAG [LMNB1]", 2.24),
    ("EQGKPVIPAAVLAGFTGSGPIQLW [ETS2]", 2.55),
    ("PQPNYADTLISQESCEKNDPLSLL [PCDHGA10]", 4.83),
    ("GHHQGMPGYLPGAMPPYGQGPPMV [ZNF207]", 2.86),
    ("IFSFLPAPDRLRASASCSHWRECL [FBXO33]", 2.41),
    ("LRETKRKYESVLQLGRALTAHLYS [ARFIP2]", 2.3),
    ("HGDDLKNTKNEISELTRLIQRIRS [KRT71]", 2.77),
    ("VDNSCDWALGVCNNSWIRKNSTMV [TRIM43]", 2.49),
    ("YECNHCGKGFRHSSSLAQHQRKHA [ZNF8]", 5.08),
]

----------
Each record here notes measured protein stability index.
assayExplanation: protein stability index of a GFP-peptide fusion (GPS, HEK-293T) (PSI 1-6); higher = more stable
conditionNotes: treatment: DMSO; c terminus: a fixed tail appended

# biosequence, protein stability index
measured = [
    ("EVGKSFERHKLKRQDADAWTLYKI [SMG5]", 2.78),
    ("MLGKYGSSLEFTELLTLVNRKVSQ [CASP6]", 2.29),
    ("RKKSADVLALADEAGYYFFNGNYK [ADAMTSL2]", 3),
    ("TSYKPYLNRDEEIIKQLQKGVQQK [DENND6A]", 3.34),
    ("LQNTYMGYLDYRKKAIKDLGISPS [GLT8D2]", 2.64),
    ("SLPASSYSQDPVYANGGLNYSYRG [NOL4L]", 3.44),
    ("NAPKFQAENLDVKINENVAAGMRF [PCDHGA10]", 3.77),
    ("PLSLYGQLLWREFFYTAATNNPRF [CRY1]", 2.79),
    ("RILLRMTLGREVMSPLQAMSSYTV [NLN]", 2.67),
    ("VRHEGTRTLWSGLPATLVMTVPAT [SLC25A39]", 2.33),
    ("KEQNNLKQLEFGLKEAPVQDQGYK [ZNF8]", 5.08),
    ("LWKMKPRRNLEEDDYLHKDTGETS [STEAP1]", 4.07),
    ("SSTSCLMPSKLFAGLVHVKQCIVA [CRYL1]", 2.44),
    ("CVKNELLPSHPLELSEKNFQLNQD [POMP]", 4.42),
    ("RPNLETYYERVLKRKTFNKVLGHV [GDAP1]", 2.46),
    ("QLEEGLKDTDLARVRRFQVVEVTK [M1AP]", 4.06),
    ("KAPYLCEATHEPAAARIRAQVPDT", 4.65),
    ("TVKMLRTQRPAMVQTEDQYQFSYR [PTPRD]", 2.84),
    ("INYCALNKPGCEHECVNMEESYYC [MATN2]", 3.26),
    ("EPVAAEPKQSGSFRYLQGMLEAGE [PDLIM4]", 4.6),
    ("LVLAAVVAWCYYSVSLRKAERLRA [MYORG]", 3.27),
    ("YVLKYMESNAAQYSPEALASIQNH [EFHC1]", 2.31),
    ("LLTHRCLRDEHRCASKYGRDWERY [DHCR7]", 2.26),
    ("IMTDLYYLSQTDGAGDWREKEAKD [FUT8]", 3.59),
    ("SNFNYFYHRETEGEEQSQYMHVGS [KCNA3]", 3.89),
    ("EAGIKVHDVRLNGSAAGHVLVKDN [TENT5C]", 4.42),
    ("MNDFGIKNMDQVAPVANSYRGTLK [ETS2]", 4.06),
    ("LIGFCMFVLSLVKKHYRLQFYMFG [CDS2]", 2.33),
    ("IQFKKHEEEGIETQYFAELLMTSG [CNOT7]", 2.82),
    ("FGPGQTLLSSVHVLDLEARGYIKP [ALKBH7]", 2.43),
    ("KAAGSVSKSTQFEYAWCLVRSKYN [FIS1]", 2.24),
    ("DHMVRMHLYPADFRFDKPKKSRSP [ZNF511]", 3.42),
    ("APAPAPASSGQHHDFLSDLFSDDY [CEBPB]", 5.13),
    ("MAEHRSMDGRMEAATRGGSHLQAA [SCNN1D]", 4.56),
    ("EPGAGLGIGDMAFEGDMGAAGGDG [PSD2]", 5.72),
    ("DPAPLWGPPPAQGSPGDGGLQDQV [EMID1]", 5.22),
    ("TGACGEAMAAAEGSSGPAGLTLGR [SEPHS2]", 3.78),
    ("RGGRQKYKRRIDAENSPYLNPQLV [ESRRG]", 3.59),
    ("EKKLTVRQDLEDRYAEHVAATQAL [C22orf31]", 4.55),
    ("EEEEEEEEEEDDLSELPPLEDMGQ [FKBP8]", 5.37),
    ("AQIDQYVGLVTNQLSHIKAKIRAK [RTN2]", 2.7),
    ("HVKETQPPETVQNWIELLSGETWN [GOLPH3]", 3.67),
    ("REDDKLVVECVMKGVTSTRVYERA [FABP4]", 3.68),
    ("GLSQVLLRGGGQVLLGWTLHYFPF [POMT2]", 2.95),
    ("ASHSLSPSEHVQGKSPVNMVTVAM [ZNF649]", 3.3),
    ("RPALAQQAQGARAGGSARRPDTGD [GMCL1]", 5.28),
    ("GLLSLLLPETLNSPLLETFSDLQV [SLC22A15]", 2.47),
    ("LSVCPLEGSREHAFQITGVWDASR [PLEKHN1]", 2.88),
    ("GSEVVPVISPMYQLHKPLAEGTPR [IKZF1]", 3.56),
    ("VQPMDRLPYQHFSAHFTSGPLVPR [TBX5]", 2.88),
    ("GSLSLSFEREPSTSDLGTTDVQKK [RIPK4]", 5.26),
    ("SLTRSNRHRLRWHSFQSSHRPSLN [DLC1]", 3.05),
    ("PENQEYFEKHRWPPVWYLKEEDHY [RHOBTB2]", 3.42),
]

----------
assayExplanation: protein stability index of a GFP-peptide fusion (GPS, HEK-293T) (PSI 1-6); higher = more stable
conditionNotes: treatment: DMSO; c terminus: a fixed tail appended
// reported protein stability index per item
measure: protein stability index

# biosequence, measValue
data = [
    ("TLAVTCQLPIDRGGGEGKAMYIDT [RAD51]", 3.14),
    ("RLCGGKGGFGSMLRALGAQIEKTT [SDE2]", 2.59),
    ("LRNLSDAATKQEGMEGLLGTLVQL [CTNNB1]", 3.51),
    ("CAIQASLNQGSVFQEYDTDCEVFR [ZNF449]", 2.79),
    ("CRLINEDVNEQVMQVLGPEDLQSI [CEP70]", 3.65),
    ("EIRDWRGPQLEGEKDWGLEGYVWR [ZSWIM9]", 3),
    ("ALAGYTGSGPIQLWQFLLELLTDK [ETS1]", 2.35),
    ("DCEMNSPQVPPSQPLRPWAGGDVP [DYRK1B]", 4.32),
    ("KMRMGGRVDFEEFVELIGPKLREE [CABP4]", 3.62),
    ("KSFSMANGLNARMMHGGSYSLTTS [RAB40B]", 3.1),
    ("AGEGRLGHKRKQPLPKRVAKVPRP [FOXJ1]", 4.53),
    ("FYLPSSPNLSLASEDEEEYESGYA [SMG5]", 4.55),
    ("AVTPAGVVNKYQINGLQAWLLTHL [DHCR7]", 2.19),
    ("TPSNFQHIGHVGWDPNTGFDLNNL [WASL]", 3.24),
    ("LQIASDSHQYDRIYCGAGVQKDHE [PCMTD1]", 4.24),
    ("DGIRGKVGHARGLHAWQINWPARQ [SPSB4]", 2.8),
    ("KVYTHPKWNTQTKARSYSYPHCTG [ZC2HC1C]", 2.73),
    ("LYPEGIGARQQQVTTYLHKDYNNL [POMT2]", 3.25),
    ("GFTKEQQRLGIPKDPRQWTETHVR [ETS1]", 3.25),
    ("SVTGYSFASDGDSGTCSPLRHSFQ [ADD1]", 3.28),
    ("VCSVRGGEGRSRGSANDYKDTLGK [KRT71]", 4.68),
    ("KVESGAWIGYEHTSFCGQQFILER [CRYBA1]", 2.18),
    ("IVYHPYRPLLQYVQDMGQEDMLLP [CCNC]", 2.25),
    ("QELNELFKPVVAAQKISKGADPKS [ZC3H15]", 4.8),
    ("RQNLKLLVEETSCQQNMIQELIET [CEP70]", 3.42),
    ("FLRQLRASHLGNELEGTEELCCVA [C2CD2L]", 2.98),
    ("SARWLEVLRTYLELVLCVLVSIRN [FBXO33]", 2.33),
    ("KKDKDISKEKDTQNQNITLDCEGT [KMT2E]", 5.23),
    ("RDCLVLNQGYLSEAGASLVDQKLE [PI4K2A]", 4.29),
    ("VPSLNAALMHTLQRHRDILQVIYW [GOSR1]", 2.23),
    ("LDSGIHSGATTTAPSLSGKGNPEE [CTNNB1]", 5.64),
    ("LLSFLLLMDYIGINLATMNSCINP [EDNRA]", 2.58),
    ("RRVRLELWDTSGQGRFCTIFRSYS [RAB40C]", 2.35),
    ("PFIVTLEGNALQGPILQKDYVQLE [ZNF449]", 2.46),
    ("SLAETECRYATQLQQIQGLIGGLE [KRT15]", 2.83),
    ("ASSASEPQGLFVEALSVPLSLCVS [CLPTM1]", 2.31),
    ("SCMASLWTAPLVMRTTNLDNRCKL [CDC25A]", 2.33),
    ("KYVSKELAKEIRVKAEPFIKWLKE [EIF5]", 3.08),
    ("ALARDLLSETADPFFVLNSDVICD [GMPPB]", 3.07),
    ("YMRYSRKVWDQVKASNPDLKLWEI [SMARCE1]", 2.18),
    ("AILYYYQSGGRLRRPVNVPLDMFS [KCNA1]", 2.69),
    ("PVAAQFTSEGTTLSGVDLELVGSG [FCHO1]", 4.54),
    ("EDEDEDKEEEEEDCSEEYLERQLQ [TAF7L]", 5.64),
    ("PELSYRVCVGSDVTSIHKYMVRRY [MYORG]", 2.31),
    ("QLCGKTFLTLEKFTIHNYSHSRER [PLAGL1]", 2.15),
    ("TAIKSIEFARKGSCFLINTADRII [RBBP5]", 2.6),
    ("APAFRLSLKAKVSDNMSHLMVDFA [FSD1]", 2.28),
    ("TCADRDNLTRRFSDLGFEVKCFND [CASP6]", 2.96),
    ("VTGHTNIVDFLTHHAQTSKTERIN [FEM1C]", 3.45),
    ("FGAVTNVKVIRDFTTNKCKGFGFV [ELAVL3]", 2.42),
    ("YPVTIGGKIVGSLCAIAGVLTIAL [KCNA1]", 2.35),
    ("RVRFGQQKRYQDWFQRQYLSTPDS [INTS3]", 2.85),
    ("VLNEEGICTQKCALNWTDIPVAME [VPS39]", 3.43),
]
